# Tested on: Schistosoma mansoni schistosomula (NMRI)
# ASSAY_OVERVIEW: phenotypic severity score (0-4); higher = more antischistosomal effect, active = 2 or more
# EXPERIMENTAL_PARAMETERS: 24 h; 10 µM
MEASURED_METRIC: phenotypic severity score
Respond using a number only.

COMPOUND | OBS_VALUE
Nc1ncc(Br)cc1-c1nc2cc(Cl)cnc2[nH]1 | 0
CC(C)(CN)c1nc(-c2ccc(Cl)c(O)c2)c(-c2ccnc(N)n2)[nH]1 | 0
Cn1ccnc1CNCCS(=O)(=O)c1cccc(Nc2ccc(-c3cccc(F)c3)cn2)c1 | 0

Now look at this entry.
q: Fill in phenotypic severity score for record `CO[C@@H](C(=O)N1Cc2[nH]nc(NC(=O)c3ccc(N4CCN(C)CC4)cc3)c2C1)c1ccccc1`
a: 0

* * *

# System: Schistosoma mansoni schistosomula (NMRI)
# ASSAY_OVERVIEW: phenotypic severity score (0-4); higher = more antischistosomal effect, active = 2 or more
# EXPERIMENTAL_PARAMETERS: 24 h; 10 µM
Assign met whenever phenotypic severity score does not fall below 1; assign not met whenever it does.

Look over these answered cases.
MOLECULE | CLASSIFICATION
COc1ccc(OC)c(NCc2ccc3nc(N)nc(N)c3c2Cl)c1 | not met
Clc1cccc(CO[C@H]2CCc3ccccc3[C@@H]2n2ccnn2)c1 | met
N=C(N)Nc1ccc(-c2ccc(-c3ccc(N=C(N)N)c(Cl)c3)o2)cc1Cl | not met
O=C(C1CCCCC1)N1CC(=O)N2CCc3ccccc3C2C1 (centres undefined) | met
C[C@H]1COc2c(N3CCN(C)CC3)c(F)cc3c(=O)c(C(=O)O)cn1c23 | not met
CCOc1ccccc1NC(C)C(=O)Nc1cc(C(F)(F)F)ccc1N1CCOCC1 (centres undefined) | not met

q: Reported phenotypic severity score reaches at least 1 for `Cc1cc(NCC(C)C)c2n[nH]c(-c3ccccc3)c2n1` ?
a: not met

q: Check if phenotypic severity score >= 1 (inclusive). Item: `O=C(NCCc1ccccc1)c1cc(-c2cccnc2)cnc1NCC1CC1`
a: not met

q: Hello, I need to know if `CN1CCC(NCc2cccc(-c3ccc(S(=O)(=O)NCc4ccccc4)cc3)c2)CC1` has measured phenotypic severity score not below 1. Thanks!
a: not met

q: Check the entry `COc1ccc(Nc2ccccc2NC(=O)c2ccc(O)nc2)cc1` : does phenotypic severity score equal or exceed 1?
a: not met

q: Does phenotypic severity score meet or surpass 1 for `Clc1ccc(Cl)c(CO[C@H]2CCCC[C@@H]2n2ccnc2)c1` ?
a: not met

q: Confirm if phenotypic severity score reported for the molecule `OCCc1ccc(Nc2nccc(-c3nnc4ccccn34)n2)cc1` is 1 or above.
a: not met

q: API: above_or_equal(metric=phenotypic severity score, cutoff=1) for item `Cc1cnc(N2CCN[C@@H](Cc3ccccc3)C2)nc1Oc1ccc(-n2ccnc2)cc1`
a: met

q: Determine whether measured phenotypic severity score meets or exceeds 1 for CC(=O)NCC1CN(c2ccc(-c3ccc(CO)cc3)c(F)c2)C(=O)O1 (centres undefined)
a: not met

q: # check: phenotypic severity score of Cc1noc(C)c1C(=O)N1CCCC(c2[nH]c3c(C)cccc3c2-c2ccncc2)C1 (centres undefined) is greater than or equal to 1
a: met

* * *

# Tested on: Schistosoma mansoni schistosomula (NMRI);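 also: visual microscopic scoring of shape, motility and density changes versus 0.5% DMSO solvent controls, one point per descriptor, degeneracy or death scored 4, mean of duplicate wells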
# ASSAY_OVERVIEW: phenotypic severity score (0-4); higher = more antischistosomal effect, active = 2 or more
# EXPERIMENTAL_PARAMETERS: 24 h; 10 µM
Mark one answer only. Choices: T for active, F for inactive

q: Record request — test call for `O=C(NC1CC1)c1ccc(N2CCC(Cc3ccccc3)CC2)nc1`
a: F

q: Any idea what this test logged for `Cc1cccc(NC(=O)c2cc(S(=O)(=O)N(C)c3ccc(F)cc3)ccc2Cl)n1` ?
a: F

q: Kindly provide the recorded test outcome for the following compound: CC(c1cc(Cl)cc(Cl)c1)N(C)c1ncc2c(N)nc(N)nc2n1 (stereo not given)
a: F

q: Assay result, entry CC1=NN(c2nc3ccccc3s2)C(=O)C1Cc1cccc2ccccc12 (stereo not given) — outcome?
a: F

Source: the supplement of paper PMC6805474
